TESTED TARGET: T1, CDK4 (Homo sapiens, UniProt P11802)
T1 construct: expressed in transfected cells; host or cells: HEK293 CDK4/CDK6 double-knockout cells stably expressing E2F1-Dp-1-LB (clone #11); early experiments in plain HEK293
T1 sequence (P11802 2-303): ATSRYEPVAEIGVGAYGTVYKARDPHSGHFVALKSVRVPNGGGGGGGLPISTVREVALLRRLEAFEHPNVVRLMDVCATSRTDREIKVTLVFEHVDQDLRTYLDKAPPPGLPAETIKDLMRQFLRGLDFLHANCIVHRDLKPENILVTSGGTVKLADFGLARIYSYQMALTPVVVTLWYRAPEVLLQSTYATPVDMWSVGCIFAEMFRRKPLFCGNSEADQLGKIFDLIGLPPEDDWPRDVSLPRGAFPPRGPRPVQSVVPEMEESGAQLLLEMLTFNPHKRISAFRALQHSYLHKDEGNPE
TEST: p16 activity assay with CDK4 (NanoBiT, cell line #11)
Format: cell-based
ASSAY CONDITIONS: p16 (CDKN2A) mutants, with CDK4

MOLECULE	Observed function
p16 A36G: p16 (CDKN2A) mutant (protein) MEPAAGSSMEPSADWLATAAARGRVEEVRALLEAGGLPNAPNSYGRRPIQVMMMGSARVAELLLLHGAEPNCADPATLTRPVHDAAREGFLDTLVVLHRAGARLDVRDAWGRLPVDLAEELGHRDVARYLRAAAGGTRGSNHARIDAAEGPSDIPD	Normal
p16 R144C: p16 (CDKN2A) mutant (protein) MEPAAGSSMEPSADWLATAAARGRVEEVRALLEAGALPNAPNSYGRRPIQVMMMGSARVAELLLLHGAEPNCADPATLTRPVHDAAREGFLDTLVVLHRAGARLDVRDAWGRLPVDLAEELGHRDVARYLRAAAGGTRGSNHACIDAAEGPSDIPD	Normal
p16 D14G: p16 (CDKN2A) mutant (protein) MEPAAGSSMEPSAGWLATAAARGRVEEVRALLEAGALPNAPNSYGRRPIQVMMMGSARVAELLLLHGAEPNCADPATLTRPVHDAAREGFLDTLVVLHRAGARLDVRDAWGRLPVDLAEELGHRDVARYLRAAAGGTRGSNHARIDAAEGPSDIPD	Normal

Where do these numbers come from? They come from patent US11702666B2.
